The reported measurements were obtained from the supplement of paper PMC10567573.

Listing of entries alongside the reported protein stability index.
B1: FAM189A2 (parent)
chain: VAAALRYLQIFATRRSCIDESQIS

Variants of: B1
Assay: protein stability index of a GFP-peptide fusion (GPS, HEK-293T) (PSI 1-6); higher = more stable;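 note: lentivirally expressed fusions sorted by FACS into six bins by GFP to DsRed ratio, PSI derived from sequencing read proportions per bin multiplied by bin number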
Settings: c terminus: a fixed tail appended
Would you mind answering with just the numeric figure?

Example variants with recorded protein stability index:
[
  {
    "Variant Designation": "A2R",
    "protein stability index": 2
  },
  {
    "Variant Designation": "E20R",
    "protein stability index": 1.24
  },
  {
    "Variant Designation": "R14Y",
    "protein stability index": 3.44
  }
]

Recorded result, A4G , protein stability index: 2.23

Sample S24M ; protein stability index observed: 2.07

Looking up Y7T , I see its protein stability index listed as 2.49

Query S24Q yields protein stability index of 2.04

Quick note, protein stability index for Y7C landed at 2.06

Notebook: A3C , protein stability index read as 2.42

Q9L yielded protein stability index of 2.47

Noted for I23Q : its protein stability index reads 1.88

According to the records, this variant A3H displays protein stability index of 2.27
